Numbers sourced from patent US10000452B1.

- System: P. berghei sporozoites expressing luciferase
- procedure.text: in vitro liver stage activity, luciferase sporozoites infecting HEPG2 hepatoma cells
- Assay type: cell-based
- condition.description: Plasmodium berghei, HEPG2 cells
attribute.measured: EC50

Exam item: Param item = `O=c1c(Br)c[nH]c2cc(CN3CCN(c4ccc(F)cc4)CC3)ccc12` ; retrieve measured EC50.
Marked response: 0.858 nM

Exam item: Param item = `COC(=O)c1c[nH]c2cc(CN3CCN(c4ccc(C(F)(F)F)cc4)CC3)ccc2c1=O` ; retrieve measured EC50.
Marked response: 15.6 nM

Exam item: Param item = `COC(=O)c1c[nH]c2cc(CN3CCN(c4ccccc4)CC3)c(C)cc2c1=O` ; retrieve measured EC50.
Marked response: 6.92 nM

Exam item: Param item = `COC(=O)c1c[nH]c2cc(OCCOc3ccccc3)c(Br)cc2c1=O` ; retrieve measured EC50.
Marked response: 0.336 nM

Exam item: Param item = `COC(=O)c1c[nH]c2cc(OCCCc3ccccc3)ccc2c1=O` ; retrieve measured EC50.
Marked response: 5.26 nM

Exam item: Param item = `COC(=O)c1c[nH]c2cc(CCN3CCN(Cc4ccccc4)CC3)ccc2c1=O` ; retrieve measured EC50.
Marked response: 157 nM

Exam item: Param item = `COC(=O)c1c[nH]c2cc(N3CCN(c4ccc(OC)cc4)CC3)c(OC)cc2c1=O` ; retrieve measured EC50.
Marked response: > 100 nM

Exam item: Param item = `COC(=O)c1c[nH]c2cc(OCCOc3ccccc3)ccc2c1=O` ; retrieve measured EC50.
Marked response: 0.286 nM

Exam item: Param item = `COC(=O)c1c[nH]c2cc(N3CCN(Cc4ccccc4)CC3)ccc2c1=O` ; retrieve measured EC50.
Marked response: 84.5 nM

Exam item: Param item = `COC(=O)c1c[nH]c2cc(CN3CCN(Cc4ccccc4)CC3)c(OC)cc2c1=O` ; retrieve measured EC50.
Marked response: 9.26 nM

Exam item: Param item = `COC(=O)c1c[nH]c2cc(OCCOc3ccccc3)c(Cl)cc2c1=O` ; retrieve measured EC50.
Marked response: 0.063 nM

Exam item: Param item = `CCCCc1cc2c(=O)c(CC)c[nH]c2cc1OCCOc1ccccc1` ; retrieve measured EC50.
Marked response: 2.65 nM

Exam item: Param item = `COC(=O)c1c[nH]c2cc(CN3CCN(c4ccc(OC)cc4)CC3)c(C)cc2c1=O` ; retrieve measured EC50.
Marked response: 4.11 nM

Exam item: Param item = `COC(=O)c1c[nH]c2cc(CN3CCN(c4ccc(OC)cc4)CC3)c(OC)cc2c1=O` ; retrieve measured EC50.
Marked response: 10.4 nM

Exam item: Param item = `COC(=O)c1c[nH]c2ccc(CN3CCN(c4ccccc4)CC3)cc2c1=O` ; retrieve measured EC50.
Marked response: 90.5 nM

Exam item: Param item = `COC(=O)c1c[nH]c2ccc(CN3CCN(c4ccc(C(F)(F)F)cc4)CC3)cc2c1=O` ; retrieve measured EC50.
Marked response: 85 nM

Exam item: Param item = `COC(=O)c1c[nH]c2cc(OCCOc3ccccc3)c(C)cc2c1=O` ; retrieve measured EC50.
Marked response: 152 nM

Exam item: Param item = `COC(=O)c1c[nH]c2cc(CN3CCN(Cc4ccccc4)CC3)c(C)cc2c1=O` ; retrieve measured EC50.
Marked response: 9.46 nM

Exam item: Param item = `COC(=O)c1c[nH]c2cc(CN3CCN(c4ccc(C(F)(F)F)cc4)CC3)c(OC)cc2c1=O` ; retrieve measured EC50.
Marked response: 9.58 nM

Exam item: Param item = `COC(=O)c1c[nH]c2cc(CN3CCN(c4ccc(F)cc4)CC3)ccc2c1=O` ; retrieve measured EC50.
Marked response: 1.06 nM

Exam item: Param item = `CCCCc1ccc2[nH]cc(C(=O)OC)c(=O)c2c1` ; retrieve measured EC50.
Marked response: 0.819 nM

Exam item: Param item = `COC(=O)c1c[nH]c2cc(CN3CCN(Cc4ccccc4)CC3)ccc2c1=O` ; retrieve measured EC50.
Marked response: 43.7 nM
